Test: Plasma pharmacokinetics of raltitrexed (radioimmunoassay)
Type: in vivo
Conditions: human, intravenous, dose level VII (irinotecan 400, raltitrexed 2.6 mg m-2), cycle 1, n=6, read-out: Raltitrexed t1/2 terminal (converted)
metricName: half-life (days)
Value expressed in days; do not type the unit.

Prompt: Hello, please tell me recorded half-life for this one: Cc1nc2ccc(CN(C)c3ccc(C(=O)N[C@@H](CCC(=O)O)C(=O)O)s3)cc2c(=O)[nH]1
Completion: 10.9

====

Test: Plasma pharmacokinetics of raltitrexed (radioimmunoassay)
Format: in vivo
Conditions: human, intravenous, dose level VII (irinotecan 400, raltitrexed 2.6 mg m-2), cycle 1, n=6, read-out: Raltitrexed Cl (converted)
metricName: clearance (mL/min)
Value expressed in mL/min; do not type the unit.

Prompt: Hello, please tell me recorded clearance for this one: Cc1nc2ccc(CN(C)c3ccc(C(=O)N[C@@H](CCC(=O)O)C(=O)O)s3)cc2c(=O)[nH]1 [raltitrexed]
Completion: 55.7

====

Assay: Plasma pharmacokinetics of raltitrexed (radioimmunoassay)
Assay type: in vivo
Details: human, intravenous, dose level VII (irinotecan 400, raltitrexed 2.6 mg m-2), cycle 1, n=6
metricName: Cmax (ng/mL)
Value expressed in ng/mL; do not type the unit.

Prompt: Hello, please tell me recorded Cmax for this one: Cc1nc2ccc(CN(C)c3ccc(C(=O)N[C@@H](CCC(=O)O)C(=O)O)s3)cc2c(=O)[nH]1
Completion: 574

====

Experiment: Plasma pharmacokinetics of raltitrexed (radioimmunoassay)
Type: in vivo
Conditions: human, intravenous, dose level II (irinotecan 200, raltitrexed 2.6 mg m-2), cycle 1, n=3, read-out: Raltitrexed t1/2 terminal (converted)
metricName: half-life (h)
Value expressed in h; do not type the unit.

Prompt: Hello, please tell me recorded half-life for this one: Cc1nc2ccc(CN(C)c3ccc(C(=O)N[C@@H](CCC(=O)O)C(=O)O)s3)cc2c(=O)[nH]1
Completion: 190

====

Assay: Plasma pharmacokinetics of raltitrexed (radioimmunoassay)
Type: in vivo
Settings: human, intravenous, dose level I (irinotecan 175, raltitrexed 2.6 mg m-2), cycle 1, n=3, read-out: Raltitrexed Vss
metricName: Vd (L)
Value expressed in L; do not type the unit.

Prompt: Hello, please tell me recorded Vd for this one: Cc1nc2ccc(CN(C)c3ccc(C(=O)N[C@@H](CCC(=O)O)C(=O)O)s3)cc2c(=O)[nH]1 [raltitrexed]
Completion: 40.7

====

Experiment: Plasma pharmacokinetics of raltitrexed (radioimmunoassay)
Format: in vivo
Settings: human, intravenous, dose level I (irinotecan 175, raltitrexed 2.6 mg m-2), cycle 1, n=3
metricName: AUC (ng·h/mL)
Value expressed in ng·h/mL; do not type the unit.

Prompt: Hello, please tell me recorded AUC for this one: Cc1nc2ccc(CN(C)c3ccc(C(=O)N[C@@H](CCC(=O)O)C(=O)O)s3)cc2c(=O)[nH]1
Completion: 1710

====

Assay: Plasma pharmacokinetics of raltitrexed (radioimmunoassay)
Type: in vivo
Details: human, intravenous, dose level II (irinotecan 200, raltitrexed 2.6 mg m-2), cycle 1, n=3, read-out: Raltitrexed Vss
metricName: Vd (L)
Value expressed in L; do not type the unit.

Prompt: Hello, please tell me recorded Vd for this one: Cc1nc2ccc(CN(C)c3ccc(C(=O)N[C@@H](CCC(=O)O)C(=O)O)s3)cc2c(=O)[nH]1
Completion: 27.3

====

Assay: Plasma pharmacokinetics of raltitrexed (radioimmunoassay)
Assay type: in vivo
Conditions: human, intravenous, dose level VII (irinotecan 400, raltitrexed 2.6 mg m-2), cycle 1, n=6, read-out: Raltitrexed Vss
metricName: Vd (L)
Value expressed in L; do not type the unit.

Prompt: Hello, please tell me recorded Vd for this one: Cc1nc2ccc(CN(C)c3ccc(C(=O)N[C@@H](CCC(=O)O)C(=O)O)s3)cc2c(=O)[nH]1 [raltitrexed]
Completion: 43.8

====

Assay: Plasma pharmacokinetics of irinotecan and SN-38 (reversed-phase HPLC)
Conditions: human, plasma, iv, Irinotecan Cmax, dose level VII (irinotecan 400, raltitrexed 2.6 mg m-2); cycle 1; n=5; estimated at the end of i.v. infusion
Structures can show the parent of a compound that is named as a salt.
metricName: Cmax (ng/mL)
Value expressed in ng/mL; do not type the unit.

Prompt: Hello, please tell me recorded Cmax for this one: CCc1c2c(nc3ccc(OC(=O)N4CCC(N5CCCCC5)CC4)cc13)-c1cc3c(c(=O)n1C2)COC(=O)[C@]3(O)CC [irinotecan, Irinotecan hydrochloride]
Completion: 5410

====

Assay: Plasma pharmacokinetics of raltitrexed (radioimmunoassay)
Type: in vivo
Details: human, intravenous, dose level III (irinotecan 250, raltitrexed 2.6 mg m-2), cycle 1, n=3, read-out: Raltitrexed Vss
metricName: Vd (L)
Value expressed in L; do not type the unit.

Prompt: Hello, please tell me recorded Vd for this one: Cc1nc2ccc(CN(C)c3ccc(C(=O)N[C@@H](CCC(=O)O)C(=O)O)s3)cc2c(=O)[nH]1 [raltitrexed]
Completion: 60.2

====

Test: Plasma pharmacokinetics of raltitrexed (radioimmunoassay)
Format: in vivo
Conditions: human, intravenous, dose level VI (irinotecan 350, raltitrexed 3.0 mg m-2), cycle 1, n=6, read-out: Raltitrexed t1/2 terminal (converted)
metricName: half-life (days)
Value expressed in days; do not type the unit.

Prompt: Hello, please tell me recorded half-life for this one: Cc1nc2ccc(CN(C)c3ccc(C(=O)N[C@@H](CCC(=O)O)C(=O)O)s3)cc2c(=O)[nH]1
Completion: 12.3

====

Assay: Plasma pharmacokinetics of irinotecan and SN-38 (reversed-phase HPLC)
Settings: human, plasma, iv, Irinotecan Cmax, dose level I (irinotecan 175, raltitrexed 2.6 mg m-2); cycle 1; n=3; estimated at the end of i.v. infusion
Where a name gives a salt, the structure may show the parent alone.
metricName: Cmax (ng/mL)
Value expressed in ng/mL; do not type the unit.

Prompt: Hello, please tell me recorded Cmax for this one: CCc1c2c(nc3ccc(OC(=O)N4CCC(N5CCCCC5)CC4)cc13)-c1cc3c(c(=O)n1C2)COC(=O)[C@]3(O)CC [irinotecan, Irinotecan hydrochloride]
Completion: 3530

====

Assay: Plasma pharmacokinetics of raltitrexed (radioimmunoassay)
Type: in vivo
Settings: human, intravenous, dose level II (irinotecan 200, raltitrexed 2.6 mg m-2), cycle 1, n=3
metricName: Cmax (ng/mL)
Value expressed in ng/mL; do not type the unit.

Prompt: Hello, please tell me recorded Cmax for this one: Cc1nc2ccc(CN(C)c3ccc(C(=O)N[C@@H](CCC(=O)O)C(=O)O)s3)cc2c(=O)[nH]1
Completion: 420

====

Test: Plasma pharmacokinetics of irinotecan and SN-38 (reversed-phase HPLC)
Details: human, plasma, intravenous, Irinotecan AUC, dose level II (irinotecan 200, raltitrexed 2.6 mg m-2); cycle 1; n=3
Structures can show the parent of a compound that is named as a salt.
metricName: AUC

Prompt: Hello, please tell me recorded AUC for this one: CCc1c2c(nc3ccc(OC(=O)N4CCC(N5CCCCC5)CC4)cc13)-c1cc3c(c(=O)n1C2)COC(=O)[C@]3(O)CC [irinotecan, Irinotecan hydrochloride]
Completion: 16000 ng·h/mL

====

Experiment: Plasma pharmacokinetics of raltitrexed (radioimmunoassay)
Type: in vivo
Details: human, intravenous, dose level II (irinotecan 200, raltitrexed 2.6 mg m-2), cycle 1, n=3, read-out: Raltitrexed Cl (converted)
metricName: clearance (mL/min)
Value expressed in mL/min; do not type the unit.

Prompt: Hello, please tell me recorded clearance for this one: Cc1nc2ccc(CN(C)c3ccc(C(=O)N[C@@H](CCC(=O)O)C(=O)O)s3)cc2c(=O)[nH]1
Completion: 78.3

====

Experiment: Plasma pharmacokinetics of raltitrexed (radioimmunoassay)
Assay type: in vivo
Settings: human, intravenous, dose level VI (irinotecan 350, raltitrexed 3.0 mg m-2), cycle 1, n=6
metricName: AUC (ng·h/mL)
Value expressed in ng·h/mL; do not type the unit.

Prompt: Hello, please tell me recorded AUC for this one: Cc1nc2ccc(CN(C)c3ccc(C(=O)N[C@@H](CCC(=O)O)C(=O)O)s3)cc2c(=O)[nH]1
Completion: 2480

====

Test: Plasma pharmacokinetics of raltitrexed (radioimmunoassay)
Format: in vivo
Conditions: human, intravenous, dose level VI (irinotecan 350, raltitrexed 3.0 mg m-2), cycle 1, n=6, read-out: Raltitrexed Cl (converted)
metricName: clearance (mL/min)
Value expressed in mL/min; do not type the unit.

Prompt: Hello, please tell me recorded clearance for this one: Cc1nc2ccc(CN(C)c3ccc(C(=O)N[C@@H](CCC(=O)O)C(=O)O)s3)cc2c(=O)[nH]1
Completion: 40.2

====

Test: Plasma pharmacokinetics of irinotecan and SN-38 (reversed-phase HPLC)
Conditions: human, plasma, intravenous, Irinotecan AUC, dose level V (irinotecan 350, raltitrexed 2.6 mg m-2); cycle 1; n=3
Protocol: Other radiological investi- gations were carried out if indicated. […] Pharmacokinetic analysis was performed using WinNonlin software. […] Patients were seen weekly while on treatment.
Where a name gives a salt, the structure may show the parent alone.
metricName: AUC
Report as: number unit

Prompt: Hello, please tell me recorded AUC for this one: CCc1c2c(nc3ccc(OC(=O)N4CCC(N5CCCCC5)CC4)cc13)-c1cc3c(c(=O)n1C2)COC(=O)[C@]3(O)CC [irinotecan, Irinotecan hydrochloride]
Completion: 26600 ng·h/mL
